This listing pairs sequences with measured sensor-assay potency score (higher = more potent).
Molecular target: ANKRD40; further: reference of the scale not given here
Assay: pooled miR-30 sensor sort-seq; sequence = guide strand
Conditions: shRNA

Here are 8 sequences together with their reported answers.
- macromolecule_sequence: "TAACAGGTAAGAGACCACCTGA"
  reading: -0.364
- macromolecule_sequence: "TATCATCAGAACCAGTTCCAGC"
  reading: -0.968
- macromolecule_sequence: "TCGAGCAACATCCTTGTCCTTC"
  reading: -0.697
- macromolecule_sequence: "TTCCTTAACAGAGTATTGGGTA"
  reading: 0.698
- macromolecule_sequence: "TAACTTTCTGATCTTCTCCACT"
  reading: -1.02
- macromolecule_sequence: "ATTATTTTCACTTATCATCAGA"
  reading: -0.625
- macromolecule_sequence: "TTTTGTGGTAAGAATTTCTTTG"
  reading: -0.767
- macromolecule_sequence: "TTGGAGTCGAGCAACATCCTTG"
  reading: -0.239

Reported sensor-assay potency score (higher = more potent) for `TTGATCTGGATTAACACCCAGC` was -0.194
